Numbers sourced from ChEMBL document CHEMBL1147080.

- Test system: Hepatitis C virus
- Measurement Protocol: Inhibition of hepatitis C virus replication in Huh7-K2040 cells in presence of fetal calf serum medium by RT-PCR
- Assay type: functional, organism-based, Hepacivirus hominis
pIC50: −log10 of the molar value.
Measurement Kind: pIC50

[[record]]
chem_smiles = "CCCCC/C=C\\C/C=C\\C/C=C\\C/C=C\\CCCC(=O)O"
measurement_kind = "pIC50"
experimental_result = 4.22

